tested on: HGGX39 (paediatric high-grade glioma line); test: growth inhibition (% activity, log2 RLU normalised to DMSO / staurosporine); higher = more growth inhibition; details: 33 µM
Measured attribute: growth inhibition (%)
Output spec: scalar in %, unitless text.

Specify measured growth inhibition for O=C(NCCN1CCOCC1)c1ccc(Cl)cc1 .
-0.0669

Supply growth inhibition value. Item: Nc1nc2c(ncn2COC(CO)CO)c(=O)[nH]1
1.32

Quick one: give measured growth inhibition for C[C@@H](O[C@H]1OCCN(Cc2n[nH]c(=O)[nH]2)[C@H]1c1ccc(F)cc1)c1cc(C(F)(F)F)cc(C(F)(F)F)c1
12.5

Name the recorded growth inhibition of the item CC(C)(S)[C@@H](N)C(=O)O in your answer.
0.519

Identify measured growth inhibition corresponding to CCC1=C(C)CN(C(=O)NCCc2ccc(S(=O)(=O)NC(=O)N[C@H]3CC[C@H](C)CC3)cc2)C1=O
-0.27

Supply reported growth inhibition belonging to this compound: COC(=O)Nc1nc2cc(C(=O)c3ccc(F)cc3)ccc2[nH]1
-0.271

Find the measured growth inhibition of CCCCCOC(=O)Nc1nc(=O)n([C@@H]2O[C@H](C)[C@@H](O)[C@H]2O)cc1F and report it.
1.46

Output measured growth inhibition for this item: COc1cc2/c(=N/c3ccc(Br)cc3F)nc[nH]c2cc1OCC1CCN(C)CC1
11.1

Given the compound O=C(c1ccc(OCCN2CCCCC2)cc1)c1c(-c2ccc(O)cc2)sc2cc(O)ccc12 , write its reported growth inhibition.
6.41

Write down growth inhibition measured for item CC(C)(C)NC(=O)[C@H]1CC[C@H]2[C@@H]3CC[C@H]4NC(=O)C=C[C@]4(C)[C@H]3CC[C@]12C
2.11

Assign growth inhibition to the following record: C=C1c2c(Cl)ccc(O)c2C(=O)C2=C(O)[C@]3(O)C(=O)C(C(N)=O)=C(O)[C@@H](N(C)C)[C@@H]3[C@@H](O)[C@H]12.O=C(O)c1cc(S(=O)(=O)O)ccc1O
8.03

Consider the compound CN(C)CCCC1(c2ccc(F)cc2)OCc2cc(C#N)ccc21 (stereo not given) and give its recorded growth inhibition.
2.63

Quote growth inhibition reported for Cn1nnc2c(C(N)=O)ncn2c1=O please.
-1.58

State its growth inhibition: CCCCOc1ccc(CC(=O)NO)cc1
12.5

Please indicate growth inhibition recorded for CCCCCCCCCCC[C@@H](C[C@@H]1OC(=O)[C@H]1CCCCCC)OC(=O)[C@H](CC(C)C)NC=O
-0.97

Name the recorded growth inhibition of the compound listed here: COc1cccc(N(C)C(=S)Oc2ccc3c(c2)CCCC3)n1
2.33

Specify reported growth inhibition for the compound shown: O=c1n(CCCN2CCN(c3cccc(Cl)c3)CC2)nc2ccccn12
4.78

Return reported growth inhibition. Input compound: COC(=O)CCc1ccc(OCC(O)CNC(C)C)cc1 (stereo not given)
0.823

# return recorded growth inhibition for input Cc1ccc(C(=O)c2cc(O)c(O)c([N+](=O)[O-])c2)cc1
-1.44

Quick one: give measured growth inhibition for CNC(=O)c1ccccc1Sc1ccc2c(/C=C/c3ccccn3)n[nH]c2c1
10.9
